Origin of values: PubChem BioAssay (NCI)

Reported values of TGI for individual entries
tested on: K-562 leukemia; assay: NCI tumour cell line growth inhibition, 48 h
Endpoint name: TGI (µM)

[
  {
    "Molecule": "COc1ccc(C2CC(c3ccccc3)=NN2C(=O)c2cc(OC)c(OC)c(OC)c2)cc1O (stereo not given)",
    "Readout unit": "µM",
    "Relation sign": "=",
    "Assay value": 27.1
  },
  {
    "Molecule": "CN(CC(=O)O)CC(=O)O",
    "Readout unit": "µM",
    "Relation sign": ">",
    "Assay value": 100
  },
  {
    "Molecule": "CC(O)CC(=O)CO[C@H]1[C@H](O)[C@@H](O)[C@@H](O)[C@@H]2NC(=O)c3c(cc4c(c3O)OCO4)[C@H]21 (stereo not given in full)",
    "Readout unit": "µM",
    "Relation sign": "=",
    "Assay value": 4.14
  },
  {
    "Molecule": "O=c1c2cccc(F)c2sc2c(NCCCNCCO)nc3ccccc3c12",
    "Readout unit": "µM",
    "Relation sign": "=",
    "Assay value": 4.64
  },
  {
    "Molecule": "O=C(CC(=O)N1N=C(n2ccc3ccccc32)CC1c1ccccc1)Nc1ccc(Cl)cc1 (stereo not given)",
    "Readout unit": "µM",
    "Relation sign": ">",
    "Assay value": 100
  },
  {
    "Molecule": "Nc1c(C(=O)c2ccc(C#CCN3CCOCC3)cc2)cnn1-c1ccc(F)cc1",
    "Readout unit": "µM",
    "Relation sign": ">",
    "Assay value": 25
  },
  {
    "Molecule": "Fc1ccc(Nc2ncc(-c3cc(F)c(Cl)cc3Cl)s2)cc1Cl",
    "Readout unit": "µM",
    "Relation sign": "=",
    "Assay value": 15.5
  },
  {
    "Molecule": "COc1ccc(/C(=C/c2ccc3ccccc3c2)c2nn[nH]n2)cc1OC",
    "Readout unit": "µM",
    "Relation sign": ">",
    "Assay value": 100
  },
  {
    "Molecule": "O=C(Nc1ccccc1)n1cc(-c2ccccn2)c(N2CCOCC2)n1",
    "Readout unit": "µM",
    "Relation sign": ">",
    "Assay value": 100
  }
]

----------
Reported values of TGI for individual entries
tested on: HS 578T breast; experiment: NCI tumour cell line growth inhibition, 48 h

[
  {
    "Compound": "C=C1C2C[C@@H]3O[C@H]4C[C@H]5O[C@@]6(C[C@@H]7O[C@]8(C[C@H](C)[C@@H]9O[C@@H]%10CC(C=O)O[C@@H]%10C[C@@H]9O8)C[C@H](C)[C@@H]7O6)C[C@H]5O[C@H]4[C@H](C)[C@H]3OC(=O)C[C@H]3CC[C@@H]4OC5[C@H]6O[C@]7(CC[C@H]8CC(=C)[C@H](CC[C@@H](C[C@H]1C)O2)O8)CC6O[C@@H]5[C@@H](O7)[C@H]4O3 (stereo not given in full)",
    "TGI": "< 0.0001 µM"
  },
  {
    "Compound": "CCSc1nc(NC(C)c2ccccc2)c2cnn(CO)c2n1 (stereo not given)",
    "TGI": "99.4 µM"
  },
  {
    "Compound": "Fc1cc(C2=Nn3c(CNc4ccc(Cl)cc4)nnc3S/C2=C\\c2ccc(-c3ccc(Cl)cc3)o2)c(Cl)cc1Cl",
    "TGI": "> 100 µM"
  },
  {
    "Compound": "C[C@]12CCCN1CC1=NNC(=O)c3cc(F)cc4[nH]c2c1c34",
    "TGI": "62.5 µM"
  },
  {
    "Compound": "COC(=O)CNC(=O)CNC(=O)CSc1nnc(COc2ccc(Cl)cc2)n1-c1ccccc1",
    "TGI": "78.3 µM"
  }
]

----------
Reported values of GI50 for individual entries
system: M14 melanoma; assay: NCI tumour cell line growth inhibition, 48 h
Endpoint name: GI50

[
  {
    "Molecule": "Nc1c(C(=O)c2ccc(C#CCN3CCOCC3)cc2)cnn1-c1ccc(F)cc1",
    "Assay value": "> 25 µM"
  },
  {
    "Molecule": "CCC[CH2][Sn]1([CH2]CCC)[O]C(=O)CN=C(C)c2ccccc2[O]1",
    "Assay value": "1.37 µM"
  },
  {
    "Molecule": "O=C(O)c1ccc(NCc2nc3ccccc3[nH]2)cc1",
    "Assay value": "> 100 µM"
  },
  {
    "Molecule": "CC[O-].CC[O-].COc1ccc(C(=O)[CH-]C(C)=O)cc1OC.COc1ccc(C(=O)[CH-]C(C)=O)cc1OC.[Ti+4]",
    "Assay value": "83.8 µM"
  },
  {
    "Molecule": "COc1cc(N2CCN(C(C)C)CC2)ccc1Nc1nc(Nc2ccc(F)cc2C(=O)NCC(O)CO)c2cc[nH]c2n1 (centres undefined)",
    "Assay value": "12 µM"
  },
  {
    "Molecule": "Cc1cncc(-c2nc(NCCc3c[nH]c4ccccc34)c3ncn(C(C)C)c3n2)c1",
    "Assay value": "3.94 µM"
  },
  {
    "Molecule": "O=C(Nc1ccc(Oc2ccc(NC(=O)Nc3ccccc3Cl)cc2)cc1)Nc1ccccc1Cl",
    "Assay value": "> 44.6 µM"
  },
  {
    "Molecule": "O=C1Nc2ccc(O)cc2/C1=C\\c1ccncc1",
    "Assay value": "15.8 µM"
  },
  {
    "Molecule": "Clc1ccc(-c2nc3c(-c4ccccc4)nc(-c4ccccc4)cn3c2-c2ccc(Cl)cc2)cc1",
    "Assay value": "> 100 µM"
  }
]

----------
tested on: SF-295 CNS; assay: NCI tumour cell line growth inhibition, 48 h

[
  {
    "Compound": "CN1C(c2ccccc2)CC(C)(O)CC1c1ccccc1 (stereo not drawn)",
    "TGI": "> 100 µM"
  },
  {
    "Compound": "Cc1ccc(N=NN(C)C(C)C(O)Cc2ccccc2)cc1 (stereo not drawn)",
    "TGI": "> 100 µM"
  },
  {
    "Compound": "CC(C)(C)CNCCCNc1ccc(Cl)cc1",
    "TGI": "69.1 µM"
  },
  {
    "Compound": "Cc1ccc(S(=O)(=O)NN=C2C(C)(C)CC2(C)C)cc1",
    "TGI": "> 100 µM"
  },
  {
    "Compound": "CC(C)(Oc1ccc(C(=O)c2ccc(Cl)cc2)cc1Cl)C(=O)N1CCN(CCO)CC1",
    "TGI": "> 10 µM"
  },
  {
    "Compound": "O=C(CCc1ccc(O)c(O)c1)NCCc1ccccc1",
    "TGI": "> 100 µM"
  },
  {
    "Compound": "CCOC(=O)c1cc(C2=CCNC2=O)c(-c2cc(C)no2)[nH]1",
    "TGI": "> 100 µM"
  },
  {
    "Compound": "O=C(Nc1ccn(C2CC(I)C(COC(c3ccccc3)(c3ccccc3)c3ccccc3)O2)c(=O)n1)c1ccccc1 (stereo not drawn)",
    "TGI": "21.5 µM"
  },
  {
    "Compound": "Cn1cnc([N+](=O)[O-])c1Sc1nc2ccccc2o1",
    "TGI": "74.9 µM"
  },
  {
    "Compound": "N#CCCN(C1=NN(C(=O)CC(=O)Nc2ccc(Cl)cc2)C(c2ccccc2)C1)c1ccc(Cl)cc1 (stereo not drawn)",
    "TGI": "> 100 µM"
  },
  {
    "Compound": "CCCCCCCCCC(=O)NCCc1c[nH]c2ccc(OC)cc12",
    "TGI": "32 µM"
  },
  {
    "Compound": "CC(C(=O)NCCNC(=O)CCCC(=O)N(C)O)C(=O)NCCNC(=O)CCCC(=O)N(C)O",
    "TGI": "> 100 µM"
  },
  {
    "Compound": "O=C(O)CCNc1ncc2c(n1)-c1ccccc1OC2",
    "TGI": "> 100 µM"
  },
  {
    "Compound": "CC(C)(C)[Si](C)(C)OC1[C@@H](O[Si](C)(C)C(C)(C)C)[C@@H](CNC(=O)NC(=O)NC(=O)CCl)O[C@H]1n1cnc2c(NC(=O)Nc3ccccc3)ncnc21 (stereo partly drawn)",
    "TGI": "15 µM"
  },
  {
    "Compound": "Cc1occc1C(=S)Nc1ccc(Cl)c(C(=O)OCC(C)C)c1",
    "TGI": "33.2 µM"
  },
  {
    "Compound": "Clc1ccc(C2CC(c3cccc(Nc4ccncc4)c3)=NN2c2ccccc2)cc1 (stereo not drawn)",
    "TGI": "3.07 µM"
  },
  {
    "Compound": "O=S1(=O)OCCOS(=O)(=O)C1(Cl)Cl",
    "TGI": "> 100 µM"
  },
  {
    "Compound": "O=C(O)c1ccc(NCc2nc3ccccc3[nH]2)cc1",
    "TGI": "> 100 µM"
  },
  {
    "Compound": "COc1ccc(NC(=S)C#N)cc1",
    "TGI": "> 100 µM"
  },
  {
    "Compound": "Cc1ccc(/C=C(/C#N)n2nnc3ncccc32)cc1",
    "TGI": "16.2 µM"
  },
  {
    "Compound": "O=c1sc(Nc2ccc3ccccc3c2Cl)nc2ccccc12",
    "TGI": "> 100 µM"
  },
  {
    "Compound": "O=C(/C=C/c1ccco1)Nc1ncc(Cc2cccc(C(F)(F)F)c2)s1",
    "TGI": "1.42 µM"
  },
  {
    "Compound": "CC(=O)c1cc2c(s1)C(=O)c1ccsc1C2=O",
    "TGI": "0.307 µM"
  },
  {
    "Compound": "COc1ccc(OC)c(N=Cc2cc(OC)c(OC)c(OC)c2)c1",
    "TGI": "> 100 µM"
  },
  {
    "Compound": "N#CC(NNC(=O)c1c(Cl)c(Cl)c(Cl)c(Cl)c1-c1nc2ccc(C(=O)c3ccccc3)cc2[nH]1)c1ccccc1 (stereo not drawn)",
    "TGI": "22.1 µM"
  },
  {
    "Compound": "COC(=O)C(=O)C(C#N)c1cccc(Cl)c1 (stereo not drawn)",
    "TGI": "> 100 µM"
  },
  {
    "Compound": "Cc1ccc(S(=O)(=O)OCC(=O)Nc2ccc(C(=O)O)c(O)c2)cc1",
    "TGI": "322 µM"
  },
  {
    "Compound": "Fc1ccc(Nc2ncc(-c3cc(F)c(Cl)cc3Cl)s2)cc1Cl",
    "TGI": "31 µM"
  },
  {
    "Compound": "CC1NC(C(=O)O)Cc2cc(O)c(O)cc21 (stereo not drawn)",
    "TGI": "> 100 µM"
  },
  {
    "Compound": "CC(=O)Nc1ncc2c(n1)-c1ccccc1OC2c1ccccc1 (stereo not drawn)",
    "TGI": "> 100 µM"
  },
  {
    "Compound": "CCOC(CN(C)C(=O)Nc1ccc(Cl)c(Cl)c1)OCC",
    "TGI": "> 10 µM"
  },
  {
    "Compound": "CN(C)CCCOc1ccc(/C=C2/CCC/C(=C/c3ccc(OCCCN(C)C)cc3)C2=O)cc1",
    "TGI": "3.65 µM"
  },
  {
    "Compound": "COc1ccc2nc3c(C)cc4ccccc4n3c2c1",
    "TGI": "> 100 µM"
  },
  {
    "Compound": "N#CC(C(=O)CCC(=O)Nc1ccc(Cl)cc1)c1ccc(Cl)cc1 (stereo not drawn)",
    "TGI": "> 100 µM"
  },
  {
    "Compound": "O=C(NNC(=S)Nc1ccc(Cl)cc1)C12CC3CC(CC(C3)C1)C2",
    "TGI": "26.6 µM"
  },
  {
    "Compound": "COc1ccc(-c2[nH]c(-c3ccc(OC)cc3)c(-c3ccccn3)c2-c2ccccn2)cc1",
    "TGI": "> 100 µM"
  },
  {
    "Compound": "CN1CCN(Cc2ccc(NC(=O)c3cncc(C#Cc4c(N)ncc5c(F)cccc45)c3)cc2C(F)(F)F)CC1",
    "TGI": "1.77 µM"
  },
  {
    "Compound": "[N-]=[N+]=NCCCn1c2c(c3ccc([N+](=O)[O-])cc3c1=O)C(=O)c1cc(I)ccc1-2",
    "TGI": "> 100 µM"
  },
  {
    "Compound": "CN1C(=O)N/C(=C\\c2ccc(S(=O)(=O)N/N=C/c3ccccc3)cc2)C1=O",
    "TGI": "> 100 µM"
  },
  {
    "Compound": "O=S(=O)(O)c1ccc(Nc2ccnc3ccccc23)cc1",
    "TGI": "> 100 µM"
  },
  {
    "Compound": "CC(C)COC(=O)c1ccc(N=Cc2ccc(C=Nc3ccc(C(=O)OCC(C)C)cc3)cc2)cc1",
    "TGI": "> 100 µM"
  },
  {
    "Compound": "O=C(c1cc(Cl)cc(Cl)c1)N(Cc1cccnc1)C(=S)N(Cc1cccnc1)C(=O)c1cc(Cl)cc(Cl)c1",
    "TGI": "> 100 µM"
  },
  {
    "Compound": "CCC(CC)c1cc(N[C@H]2CC[C@H](N)C2)n2nccc2n1",
    "TGI": "> 100 µM"
  }
]
